Tested on: CAKI-1 renal
Assay: NCI tumour cell line growth inhibition, 48 h
Exercise: state measured TGI for each of the compounds provided.

Here is how some compounds turned out for TGI.
1. C=CCNC(=S)N1CC(C)C(=O)Nc2cc(Cl)ccc21 (stereo not drawn) ... > 100 µM
2. N#CCc1c(-c2ccccc2)n(S(=O)(=O)c2ccccc2)c2ccccc12 ... > 100 µM

Asked: For the compound shown here, COc1cc(C(=O)O[C@H](C(=O)NCCCNC(=O)[C@@H](OC(=O)c2cc(OC)cc3c(C)cccc23)[C@]2(C)CO2)[C@]2(C)CO2)c2cccc(C)c2c1 , give the reported TGI.
Given back: 0.205 µM

====

Exercise: state measured TGI for each of the compounds provided.
System: NCI-H226 lung
Experiment: NCI tumour cell line growth inhibition, 48 h

Here is how some compounds turned out for TGI.
1) NNC(=O)CC(=O)Nc1cccc(Cl)c1 ... > 100 µM
2) CC(=O)O[C@H]([C@H](OC(C)=O)[C@H](C)OC(C)=O)[C@@H](/C=C/[C@@H]1CC=CC(=O)O1)OC(C)=O ... > 100 µM
3) CCOC(=O)CC(c1ccccc1)C(C)(C(=O)OCC)C(=O)OCC (stereo unspecified) ... > 100 µM
4) COc1cc(-c2nc3ccc(N4CCN(C)CC4)cc3[nH]2)c(OC)c2[nH]c(COC(C)=O)nc12 ... > 100 µM
5) S=C(N/N=C(\c1ccccc1)c1ccccn1)NC1CCCCC1 ... > 100 µM

Query compound follows.
Asked: For the compound shown here, CC1(C)[C@@H]2C[C@H]1[C@@H](Cc1cccc(C[C@H]3c4cc(-c5ccccn5)ncc4[C@H]4C[C@@H]3C4(C)C)c1)c1cc(-c3ccccn3)ncc12 , give the reported TGI.
Given back: > 91.2 µM

====

System: NCI-H226 lung
Test: NCI tumour cell line growth inhibition, 48 h
Exercise: state measured TGI for each of the compounds provided.

Provide each entry's TGI from the list below.
1. Cc1ccc2oc(=O)cc(/C(=C3/C=CC=N3)c3ccc[nH]3)c2c1
2. CC(O)C1(CNc2cc(Cl)nc(N)n2)CCCCC1 (centres undefined)
3. NC(N)=NCC1CCCCCCN1 (centres undefined)
4. CSC1(C)C(=O)Nc2c(OCc3ccccc3)cc([N+](=O)[O-])cc21 (centres undefined)

Given back:
4.58 µM
> 100 µM
> 100 µM
31 µM

Provide each entry's TGI from the list below.
1. Cc1n[nH]c(=S)n(C)c1=S
2. CCOC(=O)c1cc(-n2nnc3ccccc32)cn1C
3. O=C1/C(=C/c2ccccc2)CN(C(=O)C(Cl)Cl)C/C1=C\c1ccccc1

Given back:
1: > 100 µM; 2: > 10 µM; 3: 5.17 µM

Provide each entry's TGI from the list below.
1. Cc1nc(SCC(=O)Nc2ccc(Cl)cc2)c2sc(=S)n(-c3ccccc3)c2n1
2. C=CCNC(=S)N1CC(C)C(=O)Nc2cc(Cl)ccc21 (centres undefined)
3. O=C(Nc1cccc2c1C(=O)c1c(NC(=O)c3ccccc3)ccc(Nc3cccc4c3C(=O)c3ccccc3C4=O)c1C2=O)c1ccccc1
4. NC(N)=NS(=O)(=O)c1ccc(N/N=C2/CCOC2=O)cc1
5. Nc1c(C(=O)Nc2ccccc2)sc2nc3c(cc12)CCCCC3
6. CCCCCCCCCCCCCCCCCc1nccn1CCOCCO
7. CCC(C)C(N)C(=O)NC(CC(N)=O)C(=O)NC(CC(C)C)C(=O)NC(CCCCN)C(=O)NC(C)C(=O)NC(CC(C)C)C(=O)NC(C)C(=O)NC(C)C(=O)NC(CC(C)C)C(=O)NC(C)C(=O)NC(CCCCN)C(=O)NC(CCCCN)C(=O)NC(C(=O)NC(CC(C)C)C(N)=O)C(C)CC (centres undefined)

Given back:
1: > 10 µM; 2: > 100 µM; 3: > 100 µM; 4: > 100 µM; 5: 24.7 µM; 6: 10 µg/mL; 7: 29 µM
